experiment: Half life in CD1 mouse at 10 mg/kg, po; type: ADME, organism-based; set-up: dose 10 mg/kg, route oral; conditions: in vivo
measured endpoint: half-life (h)
// return numeric value only (unit: h, not printed)

Look up half-life for this compound: `CC(C)C[C@H](NC(=O)[C@@H](NC(=O)c1cccc(-c2ccccc2)n1)[C@@H](C)O)B(O)O`
53

----------
experiment: Metabolic stability in mouse liver microsomes; assay type: ADME, Microsome
measured endpoint: half-life (min)
// return numeric value only (unit: min, not printed)

Look up half-life for this compound: `CC(C)C[C@H](NC(=O)[C@H](Cc1ccccc1)NC(=O)c1cnccn1)B(O)O`
21

----------
test: Oral bioavailability in CD1 mouse at 10 mg/kg; format: ADME, organism-based; conditions: in vivo
measured endpoint: bioavailability (%)
// return numeric value only (unit: %, not printed)

Look up bioavailability for this compound: `CC(C)C[C@H](NC(=O)[C@@H](NC(=O)c1cccc(-c2ccccc2)n1)[C@@H](C)O)B(O)O`
39

----------
assay: Oral bioavailability in CD1 mouse at 4 mg/kg; format: ADME, organism-based; details: in vivo
measured endpoint: bioavailability (%)
// return numeric value only (unit: %, not printed)

Look up bioavailability for this molecule: CC(C)C[C@H](NC(=O)[C@H](Cc1ccccc1)NC(=O)c1cnccn1)B(O)O [BORTEZOMIB]
11

----------
assay: AUC (0 to infinity) in Sprague-Dawley rat at 0.8 mg/kg, po; type: ADME, organism-based; design: dose 0.8 mg/kg, route oral, time infinity; conditions: plasma
measured endpoint: AUC(0-inf) (ng·h/mL)
// return numeric value only (unit: ng·h/mL, not printed)

Look up AUC(0-inf) for this compound: `CC(C)C[C@H](NC(=O)[C@@H](NC(=O)c1cccc(-c2ccccc2)n1)[C@@H](C)O)B(O)O`
2200

----------
experiment: Volume of distribution at steady state in CD1 mouse at 0.8 mg/kg, iv; type: ADME, organism-based; set-up: dose 0.8 mg/kg, route intravenous; details: in vivo, read-out: Vdss
measured endpoint: Vd (L/kg)
// return numeric value only (unit: L/kg, not printed)

Look up Vd for this compound: CC(C)C[C@H](NC(=O)[C@H](Cc1ccccc1)NC(=O)c1cnccn1)B(O)O [BORTEZOMIB]
102

----------
test: AUC (0 to infinity) in CD1 mouse at 0.8 mg/kg, iv; format: ADME, organism-based; parameters: time infinity, dose 0.8 mg/kg, route intravenous; details: plasma
measured endpoint: AUC(0-inf)
# do not omit the unit; it follows the number

Look up AUC(0-inf) for this compound: CC(C)C[C@H](NC(=O)[C@H](Cc1ccccc1)NC(=O)c1cnccn1)B(O)O [BORTEZOMIB]
927 ng·h/mL

----------
assay: Protein binding in mouse plasma; assay type: ADME, cell-free; settings: read-out: PPB (converted)
measured endpoint: fraction unbound
Respond with the number and no other words.

- chem smiles: "CC(C)C[C@H](NC(=O)[C@H](Cc1ccccc1)NC(=O)c1cnccn1)B(O)O"
  fraction unbound: 0.049

Next item in the queue.
Look up fraction unbound for this compound: `CC(C)C[C@H](NC(=O)[C@@H](NC(=O)c1cccc(-c2ccccc2)n1)[C@@H](C)O)B(O)O`
0.001

----------
molecular target: UniProt P08684; experiment: Inhibition of human recombinant CYP3A4
Sequence (P08684 whole entry): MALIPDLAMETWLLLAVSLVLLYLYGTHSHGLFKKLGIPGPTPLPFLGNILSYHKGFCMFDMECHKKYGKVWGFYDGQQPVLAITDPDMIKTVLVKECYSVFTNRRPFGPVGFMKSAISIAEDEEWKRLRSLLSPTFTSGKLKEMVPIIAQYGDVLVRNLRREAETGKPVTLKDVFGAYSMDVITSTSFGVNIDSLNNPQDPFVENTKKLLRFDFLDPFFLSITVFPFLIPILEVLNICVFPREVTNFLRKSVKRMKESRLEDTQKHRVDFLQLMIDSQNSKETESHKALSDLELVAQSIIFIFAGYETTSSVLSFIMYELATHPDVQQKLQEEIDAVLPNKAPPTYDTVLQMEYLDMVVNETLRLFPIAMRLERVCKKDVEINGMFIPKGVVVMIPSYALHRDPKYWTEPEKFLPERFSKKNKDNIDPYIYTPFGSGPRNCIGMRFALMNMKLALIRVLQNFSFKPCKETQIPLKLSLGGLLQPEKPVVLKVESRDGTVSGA
measured endpoint: IC50

IC50 of CC(C)C[C@H](NC(=O)[C@@H](NC(=O)c1cccc(-c2ccccc2)n1)[C@@H](C)O)B(O)O [DELANZOMIB] on UniProt P08684?
3.5 µM

These measurements were taken from ChEMBL document CHEMBL1141651.
